- target_or_test_system: human GPR40 (Homo sapiens)
- Sequence (O14842 whole entry): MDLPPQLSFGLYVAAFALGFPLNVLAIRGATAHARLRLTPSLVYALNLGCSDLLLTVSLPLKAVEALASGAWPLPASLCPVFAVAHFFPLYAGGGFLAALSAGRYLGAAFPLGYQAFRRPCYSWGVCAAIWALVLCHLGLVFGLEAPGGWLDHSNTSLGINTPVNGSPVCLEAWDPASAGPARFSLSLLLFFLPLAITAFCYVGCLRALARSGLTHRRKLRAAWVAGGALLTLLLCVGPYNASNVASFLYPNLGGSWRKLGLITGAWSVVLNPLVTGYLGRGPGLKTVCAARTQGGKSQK
- measurement_description: Cell-based aequorin assay using human GPR40
- condition_details: activation of human GPR40; CHO cells stably transfected with GPR40 and Aequorin; 0.01% HSA; aequorin luminescence
endpoint_label: EC50

As a guide, the following entries are already answered.
Cc1nc(-c2ccc(C(F)(F)F)cc2)oc1COc1ccc([C@H](CC(=O)O)c2ccon2)cc1 | 0.1 to 1 µM
CC1(C)CCC=C1c1ccc(COc2ccc([C@H](CC(=O)O)c3ccon3)cc2)cc1OC(F)(F)F | 0.1 to 1 µM
Cc1ccc(-c2cc(COc3ccc([C@H](CC(=O)O)c4ccon4)cc3)c(C)o2)cc1 | 0.01 to 0.1 µM
O=C(O)C[C@@H](c1ccc(OCCCOc2ccc(C(F)(F)F)cc2)cc1)c1ccon1 | 0.1 to 1 µM
Cn1nc(-c2ccc(C(F)(F)F)cc2)cc1COc1ccc([C@H](CC(=O)O)c2ccon2)cc1 | 0.1 to 1 µM

Which EC50 reading was recorded for the compound O=C(O)C[C@@H](c1ccc(OCc2noc(-c3ccccc3)n2)cc1)c1ccon1 ?
1 to 10 µM
